biological target: NgPatB (Neisseria gonorrhoeae, UniProt Q5F966); test: NgPatB esterase inhibition, fluorometric assay with 4MU-Ac as substrate (HTS, dose response, Ki); format: biochemical; settings: pH 7, read-out: NgPatB 4MU-Ac 1° Screen (% RA)
Sequence (Q5F966 entry or part of it): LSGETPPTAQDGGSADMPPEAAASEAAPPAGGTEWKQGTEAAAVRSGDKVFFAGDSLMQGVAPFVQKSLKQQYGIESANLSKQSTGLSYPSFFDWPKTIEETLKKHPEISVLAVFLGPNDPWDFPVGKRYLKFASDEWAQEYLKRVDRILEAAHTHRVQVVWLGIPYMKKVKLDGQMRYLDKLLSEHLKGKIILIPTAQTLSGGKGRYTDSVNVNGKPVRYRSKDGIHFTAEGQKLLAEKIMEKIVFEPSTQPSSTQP
activity at 10 µM by entry:
Give just the numeric value; % need not be written.

{"columns": ["molecule", "assay system", "activity at 10 µM [%]"],
 "data": [
  ["COc1cc2oc(=O)ccc2cc1O [Isoscopoletin]", "NgPatB (Neisseria gonorrhoeae, UniProt Q5F966)", 53.5],
  ["O=c1ccc2cc(O)c(O)cc2o1 [Esculetin]", "NgPatB (Neisseria gonorrhoeae, UniProt Q5F966)", 55.7],
  ["CCCCn1c(C)c2c(=O)n(-c3nc4ccccc4s3)[nH]c2cc1=O [Compound 89224]", "NgPatB (Neisseria gonorrhoeae, UniProt Q5F966)", 78.8],
  ["Cc1cc(=O)oc2cc(O)ccc12 [Hymercrome, 7-hydroxy-4-methyl-coumarin, reference compound]", "NgPatB (Neisseria gonorrhoeae, UniProt Q5F966)", 42.9]
]}

# input Can you look up the measured activity at 10 µM of O=c1ccc2ccccc2o1 [Coumarin, 1,2-benzopyrone] for me?
# output 82.5

# input activity at 10 µM for Cc1cc(=O)oc2cc(O)c(O)cc12 [4-Me-esculetin] ?
# output 92

# input Return reported activity at 10 µM; argument: COc1cc2ccc(=O)oc2cc1O [Scopoletin]
# output 30

###

target: SaOatA (Staphylococcus aureus, UniProt Q2FV54); assay: biochemical; conditions: pH 7, read-out: SaOatA 4MU-Ac 1° Screen (% RA)
Sequence (Q2FV54 435-603): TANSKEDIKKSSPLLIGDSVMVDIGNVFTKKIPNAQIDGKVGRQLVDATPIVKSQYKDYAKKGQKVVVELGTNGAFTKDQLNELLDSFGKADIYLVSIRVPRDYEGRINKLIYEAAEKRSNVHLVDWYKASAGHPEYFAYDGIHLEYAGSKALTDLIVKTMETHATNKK
compounds and their reported activity at 10 µM
Write the number in % without appending the unit.

{"columns": ["compound", "assay system", "unit info", "activity at 10 µM"],
 "data": [
  ["Cc1cc(=O)oc2cc(O)c(O)cc12", "SaOatA (Staphylococcus aureus, UniProt Q2FV54)", "%", 98.3],
  ["O=c1ccc2cc(O)c(O)cc2o1", "SaOatA (Staphylococcus aureus, UniProt Q2FV54)", "%", 71],
  ["COc1cc2oc(=O)ccc2cc1O", "SaOatA (Staphylococcus aureus, UniProt Q2FV54)", "%", 115],
  ["CCCCn1c(C)c2c(=O)n(-c3nc4ccccc4s3)[nH]c2cc1=O", "SaOatA (Staphylococcus aureus, UniProt Q2FV54)", "%", 99.8],
  ["COc1cc2ccc(=O)oc2cc1O", "SaOatA (Staphylococcus aureus, UniProt Q2FV54)", "%", 21.4]
]}

# input May I ask what activity at 10 µM has been recorded for O=c1ccc2ccccc2o1 ?
# output 106

# input Bench note: what activity at 10 µM did Cc1cc(=O)oc2cc(O)ccc12 [Hymercrome, 7-hydroxy-4-methyl-coumarin, reference compound] show?
# output 67.8

###

target: NgPatB (Neisseria gonorrhoeae); experiment: NgPatB esterase inhibition, fluorometric assay with 4MU-Ac as substrate (HTS, dose response, Ki); format: biochemical
pIC50: −log10 of the molar value.
Parameter threshold = 4. Response is Fulfilled when pIC50 meets or exceeds it, else Not fulfilled.

Completed entries (count: 5):
{"columns": ["molecule", "answer label"],
 "data": [
  ["CCCCn1c(C)c2c(=O)n(-c3nc4ccccc4s3)[nH]c2cc1=O [Compound 89224]", "Fulfilled"],
  ["O=c1ccc2cc(O[C@@H]3O[C@H](CO)[C@@H](O)[C@H](O)[C@H]3O)c(O)cc2o1 [Esculin]", "Fulfilled"],
  ["COc1cc2ccc(=O)oc2cc1O [Scopoletin]", "Fulfilled"],
  ["Cc1cc(=O)oc2cc(O)ccc12 [Hymercrome, 7-hydroxy-4-methyl-coumarin, reference compound]", "Not fulfilled"],
  ["O=c1ccc2ccc(O)cc2o1 [Umbelliferone, 7-hydroxycoumarin]", "Not fulfilled"]
]}

# input for lookup
# input Test whether the molecule O=c1ccc2cc(O)c(O)cc2o1 [Esculetin] records pIC50 of 4 or higher.
# output Fulfilled

###

biological target: NgPatB (Neisseria gonorrhoeae, UniProt Q5F966)
measure: pKi
Conceptually, pKi converts a concentration in mol/L into minus its log10.

{"columns": ["molecule", "assay system", "pKi"],
 "data": [
  ["O=c1ccc2cc(O)c(O)cc2o1 [Esculetin]", "NgPatB (Neisseria gonorrhoeae, UniProt Q5F966)", 4.06]
]}

# evaluate next
# input Request body: readout pKi, system NgPatB (Neisseria gonorrhoeae, UniProt Q5F966), query CCCCn1c(C)c2c(=O)n(-c3nc4ccccc4s3)[nH]c2cc1=O [Compound 89224] . Return the value.
# output 3.90

###

Listed next: entries and their corresponding IC50.
biological target: SaOatA (Staphylococcus aureus); assay: SaOatA esterase inhibition, chromogenic assay with pNP-Ac as substrate; type: biochemical
Please reply with the bare figure in mM and do not write the unit itself.

# input GET /values?readout=IC50&system=SaOatA (Staphylococcus aureus)&item= O=c1ccc2cc(O[C@@H]3O[C@H](CO)[C@@H](O)[C@H](O)[C@H]3O)c(O)cc2o1
# output 1.35

# input Query IC50 on SaOatA (Staphylococcus aureus) for O=c1ccc2cc(O)c(O)cc2o1
# output 0.6

# input Quick check: IC50 on SaOatA (Staphylococcus aureus), item COc1cc2ccc(=O)oc2cc1O ?
# output 1.17

###

molecular target: NgPatB (Neisseria gonorrhoeae, UniProt Q5F966); test: NgPatB esterase inhibition, chromogenic assay with pNP-Ac as substrate; assay type: biochemical
Readings of IC50 for the listed molecules
The reply should contain only the number, in µM.

# example entries with known answers
{"columns": ["molecule", "IC50 / µM"],
 "data": [
  ["O=c1ccc2cc(O[C@@H]3O[C@H](CO)[C@@H](O)[C@H](O)[C@H]3O)c(O)cc2o1 [Esculin]", 923],
  ["O=c1ccc2cc(O)c(O)cc2o1 [Esculetin]", 853]
]}

Read the next record carefully.
# input Find the measured IC50: item COc1cc2ccc(=O)oc2cc1O [Scopoletin] , target or system NgPatB (Neisseria gonorrhoeae, UniProt Q5F966).
# output 792
